- tested_target: Gonadotropin-releasing hormone receptor (Rattus norvegicus) (UniProt P30969)
- Sequence (P30969 whole entry): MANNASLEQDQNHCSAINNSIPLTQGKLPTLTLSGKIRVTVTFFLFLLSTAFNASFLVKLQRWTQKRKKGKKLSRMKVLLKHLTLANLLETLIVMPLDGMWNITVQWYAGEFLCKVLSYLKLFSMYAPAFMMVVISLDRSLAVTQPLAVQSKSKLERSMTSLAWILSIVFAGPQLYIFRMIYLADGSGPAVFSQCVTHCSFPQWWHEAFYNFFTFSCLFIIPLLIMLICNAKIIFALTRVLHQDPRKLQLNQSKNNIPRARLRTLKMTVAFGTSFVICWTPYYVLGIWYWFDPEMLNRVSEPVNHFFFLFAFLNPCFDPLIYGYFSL
- experiment_summary: In vitro potency to inhibit GnRH-mediated LH secretion by cultured pituitary cells relative to [Ac-delta-Pro1,DFpa2,DTrp36]GnRH.
- Assay type: functional, cell-based
- test_context: Pituitary gland cell
readout_type: Relative potency

-- ask Consider the compound CC(=O)N[C@H](Cc1ccc2ccccc2c1)C(=O)N[C@H](Cc1ccc(Cl)cc1)C(=O)N[C@H](Cc1cccnc1)C(=O)N[C@@H](CO)C(=O)N[C@@H](Cc1ccc(NC(=O)CNc2n[nH]c(N)n2)cc1)C(=O)N[C@H](Cc1ccc(NC(=O)CNc2n[nH]c(N)n2)cc1)C(=O)N[C@@H](CC(C)C)C(=O)N[C@@H](CCCCNC(C)C)C(=O)N1CCC[C@H]1C(=O)N[C@H](C)N and give its measured Relative potency.
-- reply 1.1

-- ask Next up: CC(=O)NCC(=O)Nc1ccc(C[C@H](NC(=O)[C@H](CO)NC(=O)[C@@H](Cc2cccnc2)NC(=O)[C@@H](Cc2ccc(Cl)cc2)NC(=O)[C@@H](Cc2ccc3ccccc3c2)NC(C)=O)C(=O)N[C@H](Cc2ccc(NC(=O)CNC(C)=O)cc2)C(=O)N[C@@H](CC(C)C)C(=O)N[C@@H](CCCCNC(C)C)C(=O)N2CCC[C@H]2C(=O)N[C@H](C)N)cc1
-- reply 0.85

====

- tested_target: Gonadotropin-releasing hormone receptor (Rattus norvegicus) (UniProt P30969)
- experiment_summary: In vitro potency to inhibit GnRH-mediated LH secretion by cultured pituitary cells relative to [Ac-delta-Pro1,DFpa2,DTrp36]GnRH.
- Type: functional, cell-based
- test_context: Pituitary gland cell
Could you please report measured Relative potency for the items listed next?
Respond with the number and no other words.

-- ask Notebook entry, Gonadotropin-releasing hormone receptor (Rattus norvegicus) (UniProt P30969) assay: Relative potency of CC(=O)N[C@H](Cc1ccc2ccccc2c1)C(=O)N[C@H](Cc1ccc(Cl)cc1)C(=O)N[C@H](Cc1cccnc1)C(=O)N[C@@H](CO)C(=O)N[C@@H](Cc1ccc(NC(=O)[C@H](C)Nc2n[nH]c(N)n2)cc1)C(=O)N[C@H](Cc1ccc(NC(=O)[C@@H](C)Nc2n[nH]c(N)n2)cc1)C(=O)N[C@@H](CC(C)C)C(=O)N[C@@H](CCCCNC(C)C)C(=O)N1CCC[C@H]1C(=O)N[C@H](C)N = ?
-- reply 0.36

-- ask Next up: CC(=O)N[C@@H](Cc1c[nH]cn1)C(=O)Nc1ccc(C[C@H](NC(=O)[C@H](CO)NC(=O)[C@@H](Cc2cccnc2)NC(=O)[C@@H](Cc2ccc(Cl)cc2)NC(=O)[C@@H](Cc2ccc3ccccc3c2)NC(C)=O)C(=O)N[C@H](Cc2ccc(NC(=O)[C@@H](Cc3c[nH]cn3)NC(C)=O)cc2)C(=O)N[C@@H](CC(C)C)C(=O)N[C@@H](CCCCNC(C)C)C(=O)N2CCC[C@H]2C(=O)N[C@H](C)N)cc1
-- reply 0.47

-- ask Next up: CC(=O)N[C@H](Cc1ccc2ccccc2c1)C(=O)N[C@H](Cc1ccc(Cl)cc1)C(=O)N[C@H](Cc1cccnc1)C(=O)N[C@@H](CO)C(=O)N[C@@H](Cc1ccc(NC(=O)Nc2ccccc2Cl)cc1)C(=O)N[C@H](Cc1ccc(NC(=O)Nc2ccccc2Cl)cc1)C(=O)N[C@@H](CC(C)C)C(=O)N[C@@H](CCCCNC(C)C)C(=O)N1CCC[C@H]1C(=O)N[C@H](C)N
-- reply 0.1
